Every entry's value here was drawn from paper PMC6332232.

Assay: Enzyme kinetics of evogliptin hydroxylation in pooled human liver microsomes
Assay type: in vitro ADME
Conditions: human, pH 7.4, Km, formation of 4(R)-hydroxyevogliptin (M3), single-enzyme kinetics
reported.metric: Km at 20 min

Can you share its Km at 20 min? I mean this compound: `CC(C)(C)OC[C@@H]1C(=O)NCCN1C(=O)C[C@H](N)Cc1cc(F)c(F)cc1F`
124 µM
